Target: B-Raf V600E (Homo sapiens, UniProt P15056, V600E)
Construct: P4254. pFastBacBD-CDC37 BRAF D437-K722-X, V600E; His6 with pFastBac HT leader (TEV site) (N); made in house; host or cells: Sf9 (baculovirus; chaperone CDC37 co-expressed)
Sequence (P15056 with tags, fused parts or gaps V600E): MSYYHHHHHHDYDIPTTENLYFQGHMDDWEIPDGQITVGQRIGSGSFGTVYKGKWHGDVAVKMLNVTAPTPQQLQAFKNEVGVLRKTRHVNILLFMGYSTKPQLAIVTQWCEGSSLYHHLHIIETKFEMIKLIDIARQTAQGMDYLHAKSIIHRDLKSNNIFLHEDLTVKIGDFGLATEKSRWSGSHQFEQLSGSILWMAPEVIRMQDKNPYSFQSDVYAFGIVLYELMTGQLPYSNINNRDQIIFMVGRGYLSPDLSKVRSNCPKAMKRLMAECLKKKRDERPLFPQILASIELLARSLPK
Test: AlphaScreen kinase assay, B-Raf V600E
Format: biochemical
Details: read-out: IC50, activity toward kinase B-Raf V600E
measuredEndpoint: IC50

Consider the following illustrative entries.
CC(=O)c1cccc(-c2ccnc3[nH]cc(Sc4cccs4)c23)c1; ≤ 10 µM
COc1cc(OC)cc(C(=O)c2c[nH]c3ncc(-c4cccc(NS(C)(=O)=O)c4)cc23)c1; ≤ 10 µM
CS(=O)(=O)Nc1ccc(F)c(C(=O)c2c[nH]c3ncc(Br)cc23)c1F; ≤ 10 µM
CCCS(=O)(=O)Nc1ccc(F)c(C(=O)c2c[nH]c3ncc(N4CCOCC4)cc23)c1F; ≤ 10 µM
Cc1nc(NCc2ccc(Cl)cc2)ccc1Cc1c[nH]c2ncccc12; ≤ 10 µM

Batch: IC50 for all items listed.
1. CS(=O)(=O)c1cccc(-c2cnc3[nH]cc(C(=O)c4cc(O)ccc4F)c3c2)c1
2. O=C(c1c(F)ccc(NS(=O)(=O)c2ccc(Cl)cc2)c1F)c1c[nH]c2ncccc12
3. CCCS(=O)(=O)Nc1cccc(C(=O)c2c[nH]c3ncc(Br)cc23)c1C

Out:
≤ 10 µM
≤ 10 µM
≤ 10 µM

---

Hi there, I'd appreciate the recorded IC50 for every entry that follows.
Target: Btk (Homo sapiens)

CCCS(=O)(=O)Nc1ccc(F)c(C(=O)c2c[nH]c3ncc(/C=C/C(=O)O)cc23)c1F [Compound P-1269]; ≤ 10 µM

I need IC50 for every entry listed below, if you could help.
1. Oc1cccc(Cc2c[nH]c3ncc(-c4cccs4)cc23)c1F [Compound P-0052]
2. O=C(Nc1ccc(F)c(C(=O)c2c[nH]c3ncc(-c4cccnc4)cc23)c1F)NC1CCCC1 [Compound P-1317]

Out:
1: ≤ 10 µM; 2: ≤ 10 µM

---

List of pIC50 tested on PKC theta (Homo sapiens, UniProt Q04759).
pIC50: −log10 of the molar value.

Some compounds with recorded pIC50:
CC(=O)Nc1cccc(-c2ccnc3[nH]cc(C(=O)c4ccccc4F)c23)c1; ≥ 5.00
O=C(c1ccc(O)cc1Cl)c1c[nH]c2ncccc12; ≥ 5.00
COc1ccc(-c2c[nH]c3ncccc23)cc1OC; ≥ 5.00

Please look at the items below and tell me pIC50 for each one, in order.
1. O=C(c1ccccc1F)c1c[nH]c2nccc(-c3ccsc3)c12
2. O=C(c1cccc(O)c1)c1c[nH]c2nccc(Cl)c12

Out:
≥ 5.00
≥ 5.00

---

Target: FGFR1 (Homo sapiens, UniProt P11362, C488A/C584S)
Construct: P1351.pET N6 BI-PTP FGFR A458-E765-X C488A, C584S; made in house; host or cells: E. coli (PTP1B co-expressed)
Sequence (P11362 458-765 C488A/C584S): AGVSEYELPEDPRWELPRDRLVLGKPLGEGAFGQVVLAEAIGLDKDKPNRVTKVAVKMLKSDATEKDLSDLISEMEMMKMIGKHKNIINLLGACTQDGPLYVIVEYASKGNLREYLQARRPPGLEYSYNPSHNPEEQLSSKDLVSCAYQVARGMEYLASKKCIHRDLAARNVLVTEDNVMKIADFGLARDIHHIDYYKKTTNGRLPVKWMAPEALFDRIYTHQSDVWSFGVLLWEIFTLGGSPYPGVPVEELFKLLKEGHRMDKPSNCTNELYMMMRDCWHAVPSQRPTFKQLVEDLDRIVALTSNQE
Assay: AlphaScreen kinase assay, FGFR1
Type: biochemical
Details: read-out: IC50, activity toward kinase FGFR
measuredEndpoint: IC50

CC(=O)Nc1cccc(-c2cnc3[nH]cc(C(=O)c4cc(C)on4)c3c2)c1 [Compound P-0632]; ≤ 10 µM
CCCS(=O)(=O)Nc1ccc(F)c(C(=O)c2c[nH]c3ncccc23)c1F [Compound P-0007]; ≤ 10 µM
NC(=O)c1cccc(-c2cnc3[nH]cc(C(=O)c4cc(O)ccc4F)c3c2)c1 [Compound P-0037]; ≤ 10 µM
CCCC(=O)Nc1ccc(F)c(Cc2c[nH]c3ncc(-c4cccc(C(N)=O)c4)cc23)c1F [Compound P-1281]; ≤ 10 µM

Could you report IC50 for every entry in the following list?
1. O=C(c1cc(O)ccc1F)c1c[nH]c2ncccc12 [Compound P-0005]
2. CCCS(=O)(=O)Nc1ccc(F)c(Cc2c[nH]c3ncc(OC)cc23)c1F [Compound P-1316]
3. Clc1cccc(Cl)c1Cc1c[nH]c2ncc(-c3cccnc3)cc12 [Compound P-1478]
4. CCCS(=O)(=O)Nc1ccc(F)c(C(=O)c2c[nH]c3ncc(-c4ccc(C(=O)N(C)C)cc4)cc23)c1F [Compound P-1547]
5. CCCCS(=O)(=O)Nc1cccc(C(=O)c2c[nH]c3ncc(Cl)cc23)c1F [Compound P-1250]
6. Cc1ccc(F)cc1C(=O)c1c[nH]c2ncc(-c3cccc(N)c3)cc12 [Compound P-0040]
7. Cn1cc(C(F)(F)F)c(-c2ccc(S(=O)(=O)NCc3c[nH]c4ncccc34)s2)n1 [Compound P-0041]
8. Cc1c(NS(C)(=O)=O)cccc1C(=O)c1c[nH]c2ncc(Br)cc12 [Compound P-0180]

Out:
["≤ 10 µM", "≤ 10 µM", "≤ 10 µM", "≤ 10 µM", "≤ 10 µM", "≤ 10 µM", "≤ 10 µM", "≤ 10 µM"]

---

Molecular target: Jnk2 (Homo sapiens, UniProt P45984)
measuredEndpoint: IC50

Below: 8 compounds and their reported IC50.
CCCCNC(=O)Nc1ccc(F)c(C(=O)c2c[nH]c3ncc(-c4cccnc4)cc23)c1F; ≤ 10 µM
CS(=O)(=O)Nc1cccc(-c2cnc3[nH]cc(C(=O)c4cc(NS(C)(=O)=O)ccc4F)c3c2)c1; ≤ 10 µM
Cc1c(NS(C)(=O)=O)cccc1C(=O)c1c[nH]c2ncc(-c3cccnc3)cc12; ≤ 10 µM
COc1cc(NC(=O)Nc2cccc(C(=O)c3c[nH]c4ncc(-c5cccnc5)cc34)c2)cc(C(F)(F)F)c1; ≤ 10 µM
Cc1ccccc1C(=O)c1c[nH]c2ncc(-c3cccnc3)cc12; ≤ 10 µM
Cc1ccc(F)cc1C(=O)c1c[nH]c2ncc(-c3cccc(N)c3)cc12; ≤ 10 µM
CCCCNC(=O)n1ccc2c(C(=O)c3c[nH]c4ncc(-c5ccccc5)cc34)cccc21; ≤ 10 µM
O=C(NCc1ccccc1)Nc1cccc(C(=O)c2c[nH]c3ncc(-c4cccnc4)cc23)c1; ≤ 10 µM

Please give IC50 for each item listed below.
1. Cc1c(O)cccc1C(=O)c1c[nH]c2ncc(-c3cccnc3)cc12
2. CCCN(CCC)C(=O)n1ccc2c(C(=O)c3c[nH]c4ncc(-c5cccnc5)cc34)cccc21
3. Cc1cccc(NC(=O)Nc2cccc(C(=O)c3c[nH]c4ncc(-c5cccnc5)cc34)c2)c1
4. Cc1c(O)cccc1C(=O)c1c[nH]c2ncc(-c3ccccc3)cc12

Out:
1: ≤ 10 µM; 2: ≤ 10 µM; 3: ≤ 10 µM; 4: ≤ 10 µM

Go through the items and report each one's IC50.
1. O=C(c1cccc(O)c1F)c1c[nH]c2ncc(-c3cccs3)cc12
2. Cc1ccccc1NC(=O)Nc1cccc(C(=O)c2c[nH]c3ncc(-c4cccnc4)cc23)c1
3. CCCCNC(=O)Nc1cccc(C(=O)c2c[nH]c3ncc(-c4cccnc4)cc23)c1Cl
4. CC(=O)Nc1cccc(-c2cnc3[nH]cc(C(=O)c4cccc(O)c4F)c3c2)c1
5. COCCNC(=O)Nc1cccc(C(=O)c2c[nH]c3ncc(-c4cccnc4)cc23)c1
6. NC(=O)Nc1ccc(F)c(C(=O)c2c[nH]c3ncc(-c4ccccc4)cc23)c1
7. CCCNC(=O)Nc1ccc(F)c(C(=O)c2c[nH]c3ncc(-c4cccnc4)cc23)c1F

Out:
1. ≤ 10 µM
2. ≤ 10 µM
3. ≤ 10 µM
4. ≤ 10 µM
5. ≤ 10 µM
6. ≤ 10 µM
7. ≤ 10 µM

Field: IC50. Fill in for each record below.
1. O=C(c1c(F)ccc(NS(=O)(=O)c2ccccc2)c1F)c1c[nH]c2ncc(-c3cccnc3)cc12
2. O=C(Nc1ccc(F)c(Cc2c[nH]c3ncc(Cl)cc23)c1F)NC1CCCC1
3. O=C(O)/C=C/c1cccc(-c2cnc3[nH]cc(C(=O)c4ccccc4F)c3c2)c1

Out:
1: ≤ 10 µM; 2: ≤ 10 µM; 3: ≤ 10 µM

For each of the compounds below, state IC50.
1. COc1ccc(NC(=O)Nc2cccc(C(=O)c3c[nH]c4ncc(-c5cccnc5)cc34)c2)cn1
2. COC(=O)Nc1ccc(F)c(C(=O)c2c[nH]c3ncc(-c4cccnc4)cc23)c1F
3. O=C(Nc1ccc(Cl)cc1)Nc1cccc(C(=O)c2c[nH]c3ncc(-c4cccnc4)cc23)c1
4. Cc1c(NS(C)(=O)=O)cccc1C(=O)c1c[nH]c2ncc(-c3ccccc3)cc12
5. CCCCNC(=O)Nc1ccc(F)c(C(=O)c2c[nH]c3ncc(-c4cccc(S(C)(=O)=O)c4)cc23)c1
6. NC(=O)c1ccc(-c2ccnc3[nH]cc(C(=O)c4cc(F)ccc4F)c23)cc1
7. CCCCNC(=O)Nc1cccc(C(=O)c2c[nH]c3ncc(-c4cccnc4)cc23)c1

Out:
["≤ 10 µM", "≤ 10 µM", "≤ 10 µM", "≤ 10 µM", "≤ 10 µM", "≤ 10 µM", "≤ 10 µM"]

Batch request: IC50 per item, same order as input.
1. CCc1ccc(S(=O)(=O)Nc2ccc(F)c(C(=O)c3c[nH]c4ncc(Cl)cc34)c2F)cc1
2. COc1cccc(C(=O)c2c[nH]c3ncc(-c4cccc(/C=C/C(=O)O)c4)cc23)c1

Out:
≤ 10 µM
≤ 10 µM
